Value source: patent US11046728B2

molecular target: GABA receptor α1β2γ2 (Homo sapiens, UniProt P14867+P47870); construct: expressed in transfected cells; host or cells: LTK cells, stably transfected; test: Patch clamp electrophysiology, Qpatch in Ltk cells; type: cell-based; details: 10 μM test article, GABA EC20 = 2 μM, read-out: GABA (α1β2γ2) Qpatch in Ltk, % efficacy at 10 μM
Sequence (P14867 28-456): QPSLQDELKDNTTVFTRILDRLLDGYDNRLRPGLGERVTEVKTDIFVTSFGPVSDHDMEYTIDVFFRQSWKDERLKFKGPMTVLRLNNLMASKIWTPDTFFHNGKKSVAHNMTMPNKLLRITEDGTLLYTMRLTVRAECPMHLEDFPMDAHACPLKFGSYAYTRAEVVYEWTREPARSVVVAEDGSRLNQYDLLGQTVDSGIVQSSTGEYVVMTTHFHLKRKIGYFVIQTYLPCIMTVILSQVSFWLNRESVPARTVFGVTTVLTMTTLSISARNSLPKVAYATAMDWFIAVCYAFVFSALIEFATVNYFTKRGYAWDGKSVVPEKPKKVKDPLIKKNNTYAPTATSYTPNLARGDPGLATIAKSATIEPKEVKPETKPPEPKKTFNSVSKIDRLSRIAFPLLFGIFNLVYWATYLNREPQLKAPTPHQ
Sequence (P47870 25-512 limits assumed): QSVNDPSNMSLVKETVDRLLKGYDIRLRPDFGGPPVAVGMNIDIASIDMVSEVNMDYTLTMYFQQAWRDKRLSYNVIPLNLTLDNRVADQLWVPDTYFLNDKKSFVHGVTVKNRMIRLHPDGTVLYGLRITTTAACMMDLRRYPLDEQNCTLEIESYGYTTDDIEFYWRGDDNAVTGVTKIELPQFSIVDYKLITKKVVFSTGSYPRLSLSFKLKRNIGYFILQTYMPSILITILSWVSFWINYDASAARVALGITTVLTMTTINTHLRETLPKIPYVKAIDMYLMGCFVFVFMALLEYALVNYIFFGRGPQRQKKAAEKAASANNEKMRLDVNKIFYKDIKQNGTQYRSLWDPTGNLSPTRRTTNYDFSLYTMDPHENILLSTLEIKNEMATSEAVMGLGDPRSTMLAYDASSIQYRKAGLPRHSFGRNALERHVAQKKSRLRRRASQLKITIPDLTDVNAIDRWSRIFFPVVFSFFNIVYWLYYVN
Sequence (P18507 40-475 partner): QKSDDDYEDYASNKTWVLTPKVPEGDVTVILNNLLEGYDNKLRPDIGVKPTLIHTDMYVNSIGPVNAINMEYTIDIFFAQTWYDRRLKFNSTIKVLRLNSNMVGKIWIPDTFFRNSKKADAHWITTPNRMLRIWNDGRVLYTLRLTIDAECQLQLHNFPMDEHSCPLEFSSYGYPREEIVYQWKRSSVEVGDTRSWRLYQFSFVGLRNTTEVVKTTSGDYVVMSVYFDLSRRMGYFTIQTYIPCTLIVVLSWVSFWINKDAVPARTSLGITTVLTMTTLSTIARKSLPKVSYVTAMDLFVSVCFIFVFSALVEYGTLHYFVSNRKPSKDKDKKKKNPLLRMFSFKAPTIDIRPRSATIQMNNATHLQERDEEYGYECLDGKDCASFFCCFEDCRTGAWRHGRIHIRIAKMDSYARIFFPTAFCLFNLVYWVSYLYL
Provide the recorded Emax at 10 µM for the entries that follow.

Hey, quick one: what's Emax at 10 µM for each of these?
1. COCCO[C@H]1C[C@@]2(C)[C@@H](CC[C@H]3[C@@H]4CC[C@H](C#N)[C@@]4(C)CC(=O)[C@@H]32)C[C@@H]1O
2. CO[C@H]1C[C@]2(C)[C@@H](C#N)CC[C@H]2[C@@H]2CC[C@H]3C[C@H](O)[C@@H](OC)C[C@]3(C)[C@H]21
3. CO[C@H]1C[C@]2(C)[C@@H](C#N)CC[C@H]2[C@@H]2CC[C@H]3C[C@H](O)[C@@H](C)C[C@]3(C)[C@H]21

Marked response:
["100 to 500%", "> 500%", "> 500%"]

====

target: GABA receptor α1β2γ2 (Homo sapiens, UniProt P14867+P47870); construct: expressed in transfected cells; host or cells: LTK cells, stably transfected; assay: Patch clamp electrophysiology, Qpatch in Ltk cells; assay type: cell-based; conditions: 10 μM test article, GABA EC20 = 2 μM, read-out: GABA (α1β2γ2) Qpatch in Ltk, % efficacy at 10 μM
readout: Emax at 10 µM

Check out these entries, answers already filled in.
C[C@]12CC[C@@H](O)C[C@H]1CC[C@@H]1[C@@H]2[C@@H](O)C[C@]2(C)[C@@H](C#N)CC[C@@H]12 [Compound 9] ... 100 to 500%
C[C@H]1C[C@@]2(C)[C@@H](CC[C@@H]3[C@@H]2CC[C@]2(C)[C@@H](C#N)CC[C@@H]32)C[C@@H]1O [Compound 40] ... > 500%

Kindly review the next compound as well.
CO[C@H]1C[C@]2(C)[C@@H](C#N)CC[C@H]2[C@@H]2CC[C@H]3C[C@H](O)CC[C@]3(C)[C@H]21 [Compound 31] yielded Emax at 10 µM of > 500%

====

target: TBPS binding, rat brain cortical membranes in the presence of 5 μM GABA; experiment: 35S-TBPS displacement (steroid inhibition of TBPS binding); settings: read-out: 35S-TBPS Radioligand Displacement (IC50)
pIC50: −log10 of the molar value.
readout: pIC50

Check out these entries, answers already filled in.
CC(C)O[C@H]1C[C@@]2(C)[C@@H](CC[C@H]3[C@@H]4CC[C@H](C#N)[C@@]4(C)CC(=O)[C@@H]32)C[C@@H]1O [Compound 23] ... 6.30 to 7.00
CCCO[C@H]1C[C@@]2(C)[C@@H](CC[C@@H]3[C@@H]2CC[C@]2(C)[C@@H](C#N)CC[C@@H]32)C[C@@H]1O ... > 8.00

CO[C@H]1C[C@]2(C)[C@H](C#N)CC[C@H]2[C@@H]2CC[C@H]3C[C@H](O)[C@H](C)C[C@]3(C)[C@H]21 yielded pIC50 of 6.30 to 7.00

====

target: GABA receptor α1β2γ2 (Homo sapiens, UniProt P14867+P47870); construct: expressed in transfected cells; host or cells: LTK cells, stably transfected; experiment: Patch clamp electrophysiology, Qpatch in Ltk cells; assay type: cell-based; settings: 10 μM test article, GABA EC20 = 2 μM, read-out: GABA (α1β2γ2) Qpatch in Ltk, % efficacy at 10 μM
Provide the recorded Emax at 10 µM for the entries that follow.

Check out these entries, answers already filled in.
CC(C)CO[C@H]1C[C@]2(C)C3CC[C@]4(C)[C@@H](C#N)CC[C@H]4[C@@H]3CC[C@H]2C[C@@H]1O (stereo partly drawn) [Compound 29] ... > 500%
CC(C)O[C@H]1C[C@@]2(C)[C@@H](CC[C@H]3[C@@H]4CC[C@H](C#N)[C@@]4(C)CC(=O)[C@@H]32)C[C@@H]1O [Compound 22] ... 100 to 500%
CC[C@H]1C[C@@]2(C)[C@@H](CC[C@@H]3[C@@H]2CC[C@]2(C)[C@@H](C#N)CC[C@@H]32)C[C@@H]1O [Compound 41] ... > 500%

Hey, quick one: what's Emax at 10 µM for each of these?
1. C[C@@H]1C[C@@]2(C)[C@@H](CC[C@@H]3[C@@H]2CC[C@]2(C)[C@@H](C#N)CC[C@@H]32)C[C@@H]1O [Compound 33]
2. CO[C@H]1C[C@]2(C)[C@@H](C#N)CC[C@H]2[C@@H]2CC[C@H]3C[C@H](O)[C@H](C)C[C@]3(C)[C@H]21 [Compound 45]
3. CO[C@H]1C[C@@]2(C)[C@@H](CC[C@H]3[C@@H]4CC[C@H](C#N)[C@@]4(C)CC(=O)[C@@H]32)C[C@@H]1O [Compound 3]

Marked response:
100 to 500%
> 500%
100 to 500%
